tested on: TO-N3 (biotin conjugate); assay: pull-down binding Z-score (relative to library population); higher = stronger binding; conditions: RNA library: Library-2
readout_kind: pull-down binding Z-score
Lab note: record the figure alone, no unit after it.

# macromolecule_sequence, pull-down binding Z-score
rows = [
    ("AUUAUGAGGACUUUUAAAGUUUCCAUUUGGAAUCUUGAUUACAUCAUAAACCUCAUAAU", -1.39),
    ("GGCCUCACGGCC [IAV_invivo_PB1_2_Motif_9+IAV_invivo_PB1_2_Motif_9]", -0.332),
    ("ACCCUGCAGCCCCAGCUGGAGGAUGAGGAGAUGCUGGGCUUGGGU [hsa-mir-4313]", 1.73),
    ("GGGAGAUAACAUUCC [IAV_invivo_M1_M2_7_Motif_7+IAV_invivo_M1_M2_7_Motif_7]", -0.16),
    ("GGCAGGUGCCUCCGUGUUGCCGAACCCUCCU [hsa-mir-6761]", 0.998),
]

query: Fill blank: measured pull-down binding Z-score of the sequence UGGUCAGGCGGCU [hsa-mir-3917] is ____.
result: 0.0412

query: Fill blank: measured pull-down binding Z-score of the sequence CUGUCUGUUGUCUAAGAAAAGAUCG [hsa-mir-517c_517b] is ____.
result: -0.0242

query: Fill blank: measured pull-down binding Z-score of the sequence GUGAUAGUAAUAAAGUCUCAU [hsa-mir-135a-2] is ____.
result: -0.32

query: Fill blank: measured pull-down binding Z-score of the sequence GUUUAAGGAAGGUGUAGAGUUUCUUAGAGAC is ____.
result: 0.119

query: Fill blank: measured pull-down binding Z-score of the sequence UUUUAAUUUUUUUAAAA [hsa-mir-3606] is ____.
result: -0.183

query: Fill blank: measured pull-down binding Z-score of the sequence CGGUCCCAUAUUGAACUCG [hsa-mir-4444-1_4444-2] is ____.
result: -0.4

query: Fill blank: measured pull-down binding Z-score of the sequence CUUUUUGCUGAUGGAGGGUCUUGCCUCCAUGGGGAUGGCUG [hsa-mir-4502] is ____.
result: 0.938

query: Fill blank: measured pull-down binding Z-score of the sequence UGUUAGUGUUCAAGUCUACA [hsa-mir-4802] is ____.
result: -0.509

query: Fill blank: measured pull-down binding Z-score of the sequence AUAAAAUAGAAGAAUUAUUCUAUUCUUAU is ____.
result: -0.62

query: Fill blank: measured pull-down binding Z-score of the sequence GGCAGUGGUUCUAAAAGCUGUC [hsa-mir-3618] is ____.
result: 0.603

query: Fill blank: measured pull-down binding Z-score of the sequence CUGCAGUGAGCGAUCGGUGCUCUGGGG [hsa-mir-503] is ____.
result: 0.798

query: Fill blank: measured pull-down binding Z-score of the sequence GGAUCAUGUUUGCCCCCGUGGACAGCUCUCUGGUGUGCUCCUCCUGCCAUCCUGCCCACCCCUGCAUAAUGCUGCUUC [hsa-mir-6809] is ____.
result: 1.02

query: Fill blank: measured pull-down binding Z-score of the sequence UCACUGUGAACAGUCUCAGUCAGUGA [hsa-mir-183] is ____.
result: -0.919

query: Fill blank: measured pull-down binding Z-score of the sequence UAAAGAGUAUUCAACAUC [hsa-mir-1245b] is ____.
result: -0.49

query: Fill blank: measured pull-down binding Z-score of the sequence GGCACAAAUGCAACACUGCAUUACCAUGCGGUUGUGCC [3-way model-1_rpoH] is ____.
result: -1.42

query: Fill blank: measured pull-down binding Z-score of the sequence CUUCUGCUUCCUCUUAGCGCAGGAG [hsa-mir-1914] is ____.
result: -0.751

query: Fill blank: measured pull-down binding Z-score of the sequence UGCAGAUUCAACUUUGAUUGGUGAUUGUGCA is ____.
result: 0.273
